Numbers sourced from ChEMBL document CHEMBL1201862.

# tested.on: DNA repair and recombination protein RAD54-like (Homo sapiens, UniProt Q92698)
# Sequence (Q92698 whole entry): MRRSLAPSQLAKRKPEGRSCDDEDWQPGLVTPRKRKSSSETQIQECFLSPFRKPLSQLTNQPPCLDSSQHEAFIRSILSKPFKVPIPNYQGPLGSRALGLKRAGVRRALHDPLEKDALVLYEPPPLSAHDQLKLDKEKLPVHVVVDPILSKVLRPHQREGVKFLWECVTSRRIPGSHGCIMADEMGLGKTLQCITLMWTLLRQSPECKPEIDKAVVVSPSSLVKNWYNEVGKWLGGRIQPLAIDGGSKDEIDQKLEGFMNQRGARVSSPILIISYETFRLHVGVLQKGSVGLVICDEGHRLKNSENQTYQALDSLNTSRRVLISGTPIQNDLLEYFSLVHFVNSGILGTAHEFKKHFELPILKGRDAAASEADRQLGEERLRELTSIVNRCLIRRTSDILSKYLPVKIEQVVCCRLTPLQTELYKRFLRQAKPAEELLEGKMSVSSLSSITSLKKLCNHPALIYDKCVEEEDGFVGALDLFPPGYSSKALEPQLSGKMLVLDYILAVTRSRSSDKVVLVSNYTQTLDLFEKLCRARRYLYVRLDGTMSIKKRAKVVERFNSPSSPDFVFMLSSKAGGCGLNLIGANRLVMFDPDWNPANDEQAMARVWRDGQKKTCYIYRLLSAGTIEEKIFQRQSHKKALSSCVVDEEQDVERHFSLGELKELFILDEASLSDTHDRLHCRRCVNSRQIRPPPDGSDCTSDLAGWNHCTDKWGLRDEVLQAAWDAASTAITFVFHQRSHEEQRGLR
# protocol.notes: RAD54 Holliday junction migration blockers – biochemical, fluorescence, cherry-picked samples, dose series, confirmation (AID 651657)
# Assay type: functional
Activity calls are given as the source filed them. Rule as the data show it: active = AC50 of 100 µM or less and inactive = more.
# key: entry, value: AC50

Reference set (3 entries):
{"compound": "CCCCN(C)CCN=C(S)Nc1ccc2nc(N3CCN(CC)CC3)cc(C)c2c1", "tested.on": "DNA repair and recombination protein RAD54-like (Homo sapiens, UniProt Q92698)", "readout.label": "AC50", "val": "16.2 µM (active)"}
{"compound": "CC1CCCCN1CCNC(=O)c1cc2c(=O)n(C)c3ccccc3c2n1C (centres undefined)", "tested.on": "DNA repair and recombination protein RAD54-like (Homo sapiens, UniProt Q92698)", "readout.label": "AC50", "val": "33 µM (active)"}
{"compound": "CN(C)CCCNc1nc2cc(-c3ccc(F)cc3)sc2c(=O)n1C", "tested.on": "DNA repair and recombination protein RAD54-like (Homo sapiens, UniProt Q92698)", "readout.label": "AC50", "val": "33.8 µM (active)"}

Qu. Reported AC50 for DNA repair and recombination protein RAD54-like (Homo sapiens, UniProt Q92698), given Cc1ccc2nc3c(c(Nc4ccc5c(c4)OCCO5)c2c1)CCC3 ?
Ans. 54.9 µM (active)
